Where do the numbers come from? From patent US8309685B2.

System: HCV RNA replicon in cell line ET (luc-ubi-neo/ET), human Huh7 hepatoma
procedure_details: Method A: HCV RNA replicon antiviral assay (luciferase, ET cell line)
Format: cell-based, Hepatitis C virus
study_conditions: Hepatitis C virus, Huh-7; Replicon, assay of Example 22; 72 hr; read-out: Inhibition, Replicon
Procedure: The compounds were assayed to evaluate the antiviral activity and cytotoxicity of compounds in vitro using HCV RNA replicons. […] The HCV RNA levels were directly measured by viral specific TaqMan RT-PCR: The ET cell line was grown in Dulbecco's modified essential media (DMEM), 10% fetal bovine serum (FBS), 1% penicillin-streptomycin (pen-strep), 1% glutamine, 250 μg/ml G418 in a 5% CO2 incubator at 37° C. […] The number of cells in each well was determined by CytoTox-1 reagent (Promega). […]
pIC50: −log10 of the molar value.
property_name: pIC50

q: Given "C=CC(=O)N[C@H](C)C(=O)N1C[C@H](Oc2cc(-c3ccccc3)nc3cc(OC)ccc23)C[C@H]1C(=O)N[C@]1(C(=O)NS(=O)(=O)c2ccccc2)C[C@H]1C=C" , state its recorded pIC50.
a: > 8.00
